Quick list: GI50 per entry.
- Tested on: HCT-15 colon
- test protocol: NCI tumour cell line growth inhibition, 48 h

- compound: "COc1cc2c3c(n(CCCN4CCCNCC4)c(=O)c2cc1OC)-c1cc2c(cc1C3=O)OCO2"
  GI50: "1.09 µM"
- compound: "CC(=O)OCC1OC([Se-])C(OC(C)=O)C(OC(C)=O)C1OC(C)=O.N#CCC[PH+](CCC#N)CCC#N.[Au+] (stereo not given)"
  GI50: "3.92 µM"
- compound: "COc1cc2c(cc1OCCCCn1c(-c3cccs3)nc3ccccc31)N=C[C@@H]1CCCN1C2=O"
  GI50: "3.19 µM"
- compound: "FC(F)(F)c1ccc(-c2ncc(-c3ccc(C(F)(F)F)cc3)c(NCc3cc(C(F)(F)F)cc(C(F)(F)F)c3)n2)cc1"
  GI50: "3.74 µM"
- compound: "NCCCNc1nc2ccc(Cl)cc2c2c(=O)c3cc(F)ccc3sc12"
  GI50: "1.71 µM"

* * *

- Tested on: HCC-2998 colon
- test protocol: NCI tumour cell line growth inhibition, 48 h; in the data active = GI50 below about 0.43 µM; inactive = the rest
Labels: active, inactive

- compound: "CC(=O)OCC1OC([Se-])C(OC(C)=O)C(OC(C)=O)C1OC(C)=O.N#CCC[PH+](CCC#N)CCC#N.[Au+] (configuration not stated)"
  assigned label: "inactive"
- compound: "COc1cc(/C=C/C(=O)c2c(C)nc3ccccc3c2C)ccc1OCCCCOc1cc2c(cc1OC)C(=O)N1CCC[C@H]1C=N2"
  assigned label: "inactive"
- compound: "FC(F)(F)c1ccc(-c2ncc(-c3ccc(C(F)(F)F)cc3)c(NCc3cc(C(F)(F)F)cc(C(F)(F)F)c3)n2)cc1"
  assigned label: "inactive"
- compound: "CCN1C(=O)N(CC)C2C1NC(=S)N2/N=C/C=C/c1ccccc1OC (configuration not stated)"
  assigned label: "active"
- compound: "Cc1cc(C(O)(c2ccc(Nc3ccccc3)cc2)c2ccc(Nc3ccc(S(=O)(=O)O)cc3)cc2)ccc1N (configuration not stated)"
  assigned label: "inactive"
- compound: "O=C([O-])CCc1ccccc1.O=C([O-])CCc1ccccc1.O=C([O-])CCc1ccccc1.O=C([O-])CCc1ccccc1.[Mo+2].[Mo+2]"
  assigned label: "inactive"
- compound: "NC(=O)CCc1ccccc1Oc1nccc(-c2c(-c3ccc(F)cc3)ncn2C2CCNCC2)n1"
  assigned label: "inactive"

* * *

- Test system: A549 NSCLC
- test protocol: NCI tumour cell line growth inhibition, 48 h
reported endpoint: GI50

- molecule: "O=C(Nc1ccc(I)cc1)c1cccc([N+](=O)[O-])c1O"
  reported endpoint: "GI50"
  reported value: "4.52 µM"
- molecule: "CCN(CC)CC(O)COc1c(Br)c(Br)c(Br)c2c1OC(C)(C)C2 (stereo unspecified)"
  reported endpoint: "GI50"
  reported value: "3.49 µM"
- molecule: "COc1cc(/C=C/C(=O)c2c(C)nc3ccccc3c2C)ccc1OCCCCOc1cc2c(cc1OC)C(=O)N1CCC[C@H]1C=N2"
  reported endpoint: "GI50"
  reported value: "0.46 µM"
- molecule: "Cc1ccc(NC(=O)c2nc(S(C)(=O)=O)oc2-c2ccc(F)cc2)cc1Nc1ccc2ncn(C)c(=O)c2c1"
  reported endpoint: "GI50"
  reported value: "13.9 µM"
- molecule: "CCC(C)CC(C)C(=O)c1c(O)ccn(O)c1=O (stereo unspecified)"
  reported endpoint: "GI50"
  reported value: "1.78 µM"
- molecule: "N#Cc1c2ccccc2c2nnc3ccc(C(F)(F)F)cc3n12"
  reported endpoint: "GI50"
  reported value: "26.9 µM"
